Parameter pIC50: see the listing below.
# ASSAY_SUMMARY: Inhibition of Brugia malayi DHFR
pIC50 (log units): -log10 of the concentration in mol/L.

Below are worked cases with known answers.
SMILES_RECORD	pIC50
NC(N)=N/C(N)=N/c1ccc(OCc2cccc(Cl)c2)cc1	4.78
NC(N)=N/C(N)=N/c1ccc(OCc2ccc(Cl)cc2Cl)cc1	5.20
CC1(C)N=C(N)N=C(N)N1c1ccc(OCc2ccc(Cl)cc2Cl)cc1	5.24
CCc1nc(N)nc(N)c1-c1ccc(Cl)cc1	4.70

In the following, a different molecule is considered.
Prompt line: So what does the record say about pIC50 for `COc1cc(Cc2cnc(N)nc2N)cc(OC)c1OC` ?
Response line: 4.89

----------
# ASSAY_SUMMARY: Solubility of compound at pH 8
# Assay type: physicochemical
# ASSAY_CONDITIONS: buffer
REPORTED_ENDPOINT: solubility (mg/mL)
// return numeric value only (unit: mg/mL, not printed)

Prompt line: So what does the record say about solubility for `Cl.N=C(N)NC(=N)N1CCOCC1` ?
Response line: 360

----------
# ASSAY_SUMMARY: Elimination half life in mouse at 1 mg/kg, po
# Format: ADME, organism-based
# ASSAY_CONDITIONS: in vivo, read-out: beta t1/2 (converted)
REPORTED_ENDPOINT: half-life (h)
// return numeric value only (unit: h, not printed)

Prompt line: So what does the record say about half-life for CN(C)C(=N)N=C(N)N [METFORMIN] ?
Response line: 6
